Test: Plasmodium falciparum growth inhibition, primary screen, strain 3D7, DAPI fluorescence, 100 nL (AID 1184);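 note: parasites grown inside human red blood cells in medium with human serum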
Conditions: P. falciparum 3D7 growth, 3 d, higher = more signal
Hi, to clarify the labels: T covers z-score from -0.1 upward, F covers anything below -0.1.

{"columns": ["Compound", "Discrete label"],
 "data": [
  ["CON=C(C)CCN1CCc2nc(-c3ccccc3)c(-c3ccccc3)cc2C1", "F"],
  ["CCCNC(=O)OC[C@H]1O[C@H](CCON=C2C[C@@H](O)[C@@H](O)[C@@H]3[C@@H]4C(=O)N(CC)C(=O)[C@@H]4CC[C@@H]23)C=C[C@@H]1Oc1ccc(OC)cc1", "T"],
  ["CCOC(=O)[C@H](Cc1ccccc1)NC(=O)CCC1CC(OC(=O)NCc2cccc3ccccc23)CC2(CCCC(COC(=O)NCCOc3ccccc3)O2)O1 (stereo partly specified)", "F"],
  ["CC=CC1=C(CO)[C@H](O)[C@H]2O[C@H]2[C@@H]1O", "T"],
  ["CCOC(=O)[C@H](CC(C)C)NC(=O)CCC1CC(OC(=O)NCc2ccc3c(c2)OCO3)CC2(CCCC(COC(=O)NCCc3ccccc3OC)O2)O1 (stereo partly specified)", "F"],
  ["O=C(NN=C1C[C@@H](O)[C@@H](O)[C@@H]2[C@@H]3C(=O)N(c4ccc(F)cc4F)C(=O)[C@@H]3CC[C@H]12)OCc1ccccc1", "F"],
  ["O=C1[C@H]2[C@H]3[C@H](O)[C@H](O)CC(=NOC[C@@H](O)COCc4ccco4)[C@@H]3CC[C@H]2C(=O)N1Cc1ccc2c(c1)OCO2", "T"],
  ["CCOC(=O)[C@H](CC(C)C)NC(=O)CCC1CC(OC(=O)NCCc2ccc(F)cc2)CC2(CCCC(COC(=O)NCc3cccc4ccccc34)O2)O1 (stereo partly specified)", "F"],
  ["COCCNC(=O)OCC1CCCC2(CC(OC(=O)NCc3cccc4ccccc34)CC(CCC(=O)N[C@@H](C)C(=O)OC)O2)O1 (stereo partly specified)", "F"],
  ["CCOC(=O)[C@H](CC(C)C)NC(=O)CCC1CC(OC(=O)NCc2ccc3c(c2)OCO3)CC2(CCCC(COC(=O)NCCOc3ccccc3)O2)O1 (stereo partly specified)", "F"],
  ["COC(=O)[C@@H]1CC[C@H](C)[C@@H](c2ccc(Br)cc2)N1C[C@H](O)CN=[N+]=[N-]", "F"],
  ["COc1ccc(COC(=O)NN=C2C[C@@H](O)[C@@H](O)[C@@H]3[C@@H]4C(=O)N(C(C)(C)C)C(=O)[C@@H]4CC[C@@H]23)cc1", "T"],
  ["CCOC(=O)[C@H](Cc1ccccc1)NC(=O)CCC1CC(OC(=O)NCCc2ccc(F)cc2)CC2(CCCC(COC(=O)NCCOc3ccccc3)O2)O1 (stereo partly specified)", "F"],
  ["CCOC(=O)CCN1C(=O)[C@H]2[C@H]3[C@H](O)[C@H](O)CC(=O)[C@@H]3CC[C@H]2C1=O", "T"],
  ["COC(=O)[C@H](C)NC(=O)CCC1CC(OC(=O)NCc2cccc3ccccc23)CC2(CCCC(COC(=O)NCCOc3ccccc3)O2)O1 (stereo partly specified)", "F"],
  ["CC(C)CON=C1C[C@@H](O)[C@@H](O)[C@@H]2[C@@H]3C(=O)N(c4ccc(F)cc4F)C(=O)[C@@H]3CC[C@@H]12", "F"]
]}

Reference source: PubChem BioAssay
